Just for reference, patent US20230183713A1 is where these values come from.

# measured on: T1, Cre recombinase monomer with Y324F mutation
# T1 chain: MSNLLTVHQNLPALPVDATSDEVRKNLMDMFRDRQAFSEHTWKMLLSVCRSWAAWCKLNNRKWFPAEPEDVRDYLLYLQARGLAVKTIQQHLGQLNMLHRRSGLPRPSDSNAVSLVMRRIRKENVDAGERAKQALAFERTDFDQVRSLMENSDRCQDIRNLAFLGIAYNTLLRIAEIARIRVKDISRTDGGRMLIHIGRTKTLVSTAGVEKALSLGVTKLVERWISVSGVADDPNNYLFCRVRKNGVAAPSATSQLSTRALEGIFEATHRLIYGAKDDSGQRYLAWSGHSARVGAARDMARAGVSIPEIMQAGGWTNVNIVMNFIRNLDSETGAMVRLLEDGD
readout kind: Median dimer activity (recombination on loxP) (%)
One number for each entry, in %.

INPUT: Requested field: Median dimer activity (recombination on loxP). Item: Cre recombinase monomer with E176I mutation (protein) MSNLLTVHQNLPALPVDATSDEVRKNLMDMFRDRQAFSEHTWKMLLSVCRSWAAWCKLNNRKWFPAEPEDVRDYLLYLQARGLAVKTIQQHLGQLNMLHRRSGLPRPSDSNAVSLVMRRIRKENVDAGERAKQALAFERTDFDQVRSLMENSDRCQDIRNLAFLGIAYNTLLRIAIIARIRVKDISRTDGGRMLIHIGRTKTLVSTAGVEKALSLGVTKLVERWISVSGVADDPNNYLFCRVRKNGVAAPSATSQLSTRALEGIFEATHRLIYGAKDDSGQRYLAWSGHSARVGAARDMARAGVSIPEIMQAGGWTNVNIVMNYIRNLDSETGAMVRLLEDGD
OUTPUT: 67
